Please go through the items and note down their PBM binding z-score.
- Tested on: PPARg:RXRa (NR concentration 180 nM, RXRa partner concentration 90 nM)
- measurementNotes: PBM binding z-score (relative to random genomic background probes); higher = stronger binding; sequences stand for … in GC…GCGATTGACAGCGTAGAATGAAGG
In your answer, state the number alone without any accompanying words.

I have this sequence here, "CGAACTAGGTCACCAGGACAGTAAAGAGGTTGGA" , and I need its recorded PBM binding z-score.
9.15

Note, next up: "CGAACTTGGTCAAAGGACAGTGAAAGGCGACGTA"
3.15

Same question for "CGAACTAGGTCACCAGGACAGTGATGAGGTTGGA" please.
8.57

Okay, and "CTATGTAGGTTAAGGGGGGCATTCAGTTTGAAAG" ?
8.88

What would you report for "CGTCGGAGGACAGAAGGTCAGAGCTGTCCGCTTT" ?
-0.101
